# System: MET
# assay: MET biochemical kinase assay
# Set-up: species or system human; concentration or dose not given beside the values
For each record, check the reported Met Kinase % Inhibition: if it is below 30% write yes (1), else write no (0).

molecular string	tested target	category
Cc1ccc2occ(C=C3C(=O)Nc4ccc(CCCl)cc43)c(=O)c2c1	MET	no (0)
CC(=O)Oc1ccc(C=C2C(=O)Nc3ccc(Br)c(C)c32)cc1OC(C)=O	MET	no (0)
CNS(=O)(=O)c1ccc2c(c1)C(=Cc1coc3ccc(C(C)C)cc3c1=O)C(=O)N2	MET	no (0)
Cc1c(Br)ccc2c1C(=Cc1ccc([N+](=O)[O-])o1)C(=O)N2	MET	yes (1)
N#Cc1ccc(C=C2C(=O)Nc3ccc(S(=O)(=O)N4CCOCC4)cc32)cc1	MET	yes (1)
COc1cc(N(C)C)ccc1C=C1C(=O)Nc2ccc(Br)c(C)c21	MET	no (0)
O=C1Nc2ccc(CCCl)cc2C1=Cc1cc([N+](=O)[O-])ccc1O	MET	no (0)
COc1ccc(C=C2C(=O)Nc3ccc(Br)c(C)c32)cc1	MET	no (0)
CC(C)(C)c1cc(C=C2C(=O)Nc3ccc(CCCl)cc32)ccc1OCc1ccccc1	MET	yes (1)

====

# tested target: EGFR (Homo sapiens)
# Construct: Add 7 ug A431 cell lysate per well (EGFR source); endogenous in cells; host or cells: A431
# Sequence (P00533 25-1210): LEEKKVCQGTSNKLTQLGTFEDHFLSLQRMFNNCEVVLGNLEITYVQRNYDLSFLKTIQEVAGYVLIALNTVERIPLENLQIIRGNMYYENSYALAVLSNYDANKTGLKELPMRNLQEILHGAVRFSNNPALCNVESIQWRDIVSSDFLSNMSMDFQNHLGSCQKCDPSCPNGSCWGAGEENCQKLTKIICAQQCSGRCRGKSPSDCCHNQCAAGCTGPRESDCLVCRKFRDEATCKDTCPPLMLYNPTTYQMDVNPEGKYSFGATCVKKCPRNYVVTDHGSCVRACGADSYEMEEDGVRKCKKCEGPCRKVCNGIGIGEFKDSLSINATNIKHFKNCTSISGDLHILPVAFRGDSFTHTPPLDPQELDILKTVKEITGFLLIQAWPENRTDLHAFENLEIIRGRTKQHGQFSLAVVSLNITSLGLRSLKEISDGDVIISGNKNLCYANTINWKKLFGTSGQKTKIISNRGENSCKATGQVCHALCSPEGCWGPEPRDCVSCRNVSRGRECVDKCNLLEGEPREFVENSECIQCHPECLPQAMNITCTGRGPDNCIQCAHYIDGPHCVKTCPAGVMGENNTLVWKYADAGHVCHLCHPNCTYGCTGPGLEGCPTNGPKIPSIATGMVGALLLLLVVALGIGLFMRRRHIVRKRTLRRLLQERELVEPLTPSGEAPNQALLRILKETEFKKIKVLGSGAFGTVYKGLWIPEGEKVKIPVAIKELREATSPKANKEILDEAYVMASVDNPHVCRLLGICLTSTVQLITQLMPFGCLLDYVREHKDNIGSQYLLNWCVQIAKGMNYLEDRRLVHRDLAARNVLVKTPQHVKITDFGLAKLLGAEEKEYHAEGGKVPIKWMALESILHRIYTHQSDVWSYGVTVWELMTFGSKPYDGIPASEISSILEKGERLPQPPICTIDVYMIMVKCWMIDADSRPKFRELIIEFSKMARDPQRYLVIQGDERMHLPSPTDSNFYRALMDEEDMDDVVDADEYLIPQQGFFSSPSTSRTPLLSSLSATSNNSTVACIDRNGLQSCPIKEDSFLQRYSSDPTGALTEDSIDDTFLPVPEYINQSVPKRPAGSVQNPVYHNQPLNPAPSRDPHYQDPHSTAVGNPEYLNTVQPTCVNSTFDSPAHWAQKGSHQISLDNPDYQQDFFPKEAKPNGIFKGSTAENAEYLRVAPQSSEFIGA
# assay: EGFR ELISA assay (in vitro kinase activity, EGFR captured from A431 cell lysate)
# Type: biochemical
# Set-up: concentration or dose not given beside the values
Some molecules, each annotated with its measured Biochem EGFR %Inhibition.
quantity name: Biochem EGFR %Inhibition (%)

molecular string	quantity name	experimental value
Cc1c(Br)cc(Br)c2c1C(=Cc1c(Br)cnn1-c1ccc(Cl)cc1)C(=O)N2	Biochem EGFR %Inhibition	14.0
O=C1Nc2ccc(CCCl)cc2C1=Cc1ccc(F)cc1F	Biochem EGFR %Inhibition	-5.2
Cc1c(Br)ccc2c1C(=Cc1cc(Cl)cc(Cl)c1O)C(=O)N2	Biochem EGFR %Inhibition	48.6
COC(=O)Cc1c(Cl)[nH]c(C=C2C(=O)Nc3ccc(Br)c(C)c32)c1C(=O)OC	Biochem EGFR %Inhibition	23.6
O=C1Nc2ccc(I)cc2C1=Cc1c(O)cc(O)cc1O	Biochem EGFR %Inhibition	19.6
O=C1Nc2c(Br)cc(Br)cc2C1=Cc1ccc(Cl)c([N+](=O)[O-])c1	Biochem EGFR %Inhibition	5.8
CNS(=O)(=O)c1ccc2c(c1)C(=Cc1ccc(N3CCCC3)cc1)C(=O)N2	Biochem EGFR %Inhibition	11.3
Cc1ccc(C=C2C(=O)Nc3ccc(Br)c(C)c32)s1	Biochem EGFR %Inhibition	28.7
COc1ccc(C=C2C(=O)Nc3c(Br)cc(Br)cc32)cc1	Biochem EGFR %Inhibition	6.2

====

Some molecules, each annotated with its measured Fik Kinase %Inhibition.
# tested target: FLK-1 receptor (Mus musculus, UniProt P35918)
# Construct: expressed in transfected cells; host or cells: NIH3T3 C7#3
# Sequence (P35918 20-1345): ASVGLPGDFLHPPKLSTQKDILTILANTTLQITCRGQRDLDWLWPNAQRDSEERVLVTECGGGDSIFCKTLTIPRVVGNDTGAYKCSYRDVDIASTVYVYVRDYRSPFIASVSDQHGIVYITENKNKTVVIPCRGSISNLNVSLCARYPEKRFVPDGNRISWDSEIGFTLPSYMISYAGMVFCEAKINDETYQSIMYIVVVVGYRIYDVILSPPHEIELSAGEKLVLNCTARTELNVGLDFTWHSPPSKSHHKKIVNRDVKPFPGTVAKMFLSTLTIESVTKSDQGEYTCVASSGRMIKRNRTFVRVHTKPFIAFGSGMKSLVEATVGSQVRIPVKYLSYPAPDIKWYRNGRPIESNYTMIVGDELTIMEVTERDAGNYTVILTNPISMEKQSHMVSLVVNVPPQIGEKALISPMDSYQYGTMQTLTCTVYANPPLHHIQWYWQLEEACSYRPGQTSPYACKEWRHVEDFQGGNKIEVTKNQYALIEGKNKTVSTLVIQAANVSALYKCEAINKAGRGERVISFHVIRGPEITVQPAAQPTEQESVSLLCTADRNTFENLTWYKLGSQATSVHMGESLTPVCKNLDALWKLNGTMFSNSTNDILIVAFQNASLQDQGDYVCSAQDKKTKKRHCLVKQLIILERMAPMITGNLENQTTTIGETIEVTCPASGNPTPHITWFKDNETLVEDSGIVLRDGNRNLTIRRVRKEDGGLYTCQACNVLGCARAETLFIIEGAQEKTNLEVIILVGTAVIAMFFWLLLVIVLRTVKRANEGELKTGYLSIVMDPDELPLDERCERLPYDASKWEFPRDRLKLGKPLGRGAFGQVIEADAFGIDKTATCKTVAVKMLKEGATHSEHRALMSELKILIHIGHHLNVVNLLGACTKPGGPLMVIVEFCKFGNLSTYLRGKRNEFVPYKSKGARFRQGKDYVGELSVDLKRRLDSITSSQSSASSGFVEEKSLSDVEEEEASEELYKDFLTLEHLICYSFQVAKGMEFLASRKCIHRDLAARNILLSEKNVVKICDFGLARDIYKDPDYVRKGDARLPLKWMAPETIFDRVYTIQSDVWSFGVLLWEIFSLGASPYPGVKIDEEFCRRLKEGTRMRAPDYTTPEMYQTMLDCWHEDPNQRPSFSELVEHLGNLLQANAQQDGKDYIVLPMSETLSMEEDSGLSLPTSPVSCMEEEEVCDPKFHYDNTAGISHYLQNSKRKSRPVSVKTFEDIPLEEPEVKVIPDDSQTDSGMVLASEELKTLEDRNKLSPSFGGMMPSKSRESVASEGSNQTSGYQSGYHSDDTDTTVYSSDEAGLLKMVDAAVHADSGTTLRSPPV
# assay: FLK-1 ELISA (kinase activity of the FLK-1 receptor in FLK-1/NIH3T3 cells, VEGF stimulated)
# Type: cell-based

molecule	Fik Kinase %Inhibition [%]
Cc1c(Br)ccc2c1C(=Cc1ccc(C(C)(C)C)cc1)C(=O)N2 [10734/C10]	10.1
O=C1Nc2ccc(S(=O)(=O)N3CCOCC3)cc2C1=Cc1c[nH]c2ccccc12 [10717/F06]	8.9
Cc1c(Br)ccc2c1C(=Cc1ccc(N3CCCC3)cc1)C(=O)N2 [10729/C10]	2.5
Cc1c(Br)ccc2c1C(=Cc1cc(Br)c(OCc3ccccc3)c(C(C)(C)C)c1)C(=O)N2 [10732/C08]	7.6
COc1cc(OC)c(OC)cc1C=C1C(=O)Nc2ccc(Br)c(C)c21 [10730/C03]	25.5
Cc1ccsc1C=C1C(=O)Nc2ccc(I)cc21 [10729/B05]	-5.2
CNS(=O)(=O)c1ccc2c(c1)C(=Cc1cccc(Oc3ccccc3)c1)C(=O)N2 [10729/D06]	0.2
COC(=O)c1[nH]c(C)c(C=C2C(=O)Nc3ccc(Br)c(C)c32)c1C(=O)OC [10718/C07]	6.3
O=C1Nc2ccc(S(=O)(=O)Nc3ccc(C(F)(F)F)cc3)cc2C1=Cc1cc(C(F)(F)F)ccc1F [10728/E08]	15.2
O=C1Nc2ccc(S(=O)(=O)Nc3ccc(C(F)(F)F)cc3)cc2C1=Cc1ccccc1 [10720/E06]	25.5
CCOc1cccc(C=C2C(=O)Nc3ccc(S(=O)(=O)Nc4ccc(C(F)(F)F)cc4)cc32)c1O [10734/E02]	7.9
CNS(=O)(=O)c1ccc2c(c1)C(=Cc1cc(C(C)C)c(Oc3ccccc3)c(C(C)C)c1)C(=O)N2 [10732/D04]	24.6
COc1cccc(O)c1C=C1C(=O)Nc2ccc(CCCl)cc21 [10717/G10]	4.8
CC(C)(C)c1cc(C=C2C(=O)Nc3ccc(I)cc32)cc(Br)c1OCc1ccccc1 [10732/B08]	8.0
O=C1Nc2c(Br)cc(Br)cc2C1=Cc1cc(O)c2c(c1O)CCCC2 [10726/A07]	-72.3
Cc1cc(C=C2C(=O)Nc3ccc(S(=O)(=O)N4CCOCC4)cc32)cc(C)c1OCc1ccccc1 [10733/F07]	16.4
Cc1cc(C=C2C(=O)Nc3ccc(S(=O)(=O)N4CCOCC4)cc32)[nH]n1 [10725/F05]	-0.8
Cc1cc(O)cc(O)c1C=C1C(=O)Nc2ccc(S(=O)(=O)Nc3ccc(C(F)(F)F)cc3)cc21 [10720/E08]	2.5
COc1cccc(O)c1C=C1C(=O)Nc2ccc(I)cc21 [10717/B10]	-2.3
O=C1Nc2ccc(I)cc2C1=Cc1c(F)cc(F)cc1F [10720/B02]	6.5
O=C1Nc2ccc(I)cc2C1=Cc1c[nH]c(=O)[nH]c1=O [10731/B08]	6.2
Cc1c(Br)ccc2c1C(=Cc1cc(Cl)cc(Cl)c1O)C(=O)N2 [10734/C03]	-5.6
COc1ccc2[nH]cc(C=C3C(=O)Nc4c(Br)cc(Br)cc43)c2c1 [10731/A09]	-2.7
CSc1ccc(C=C2C(=O)Nc3ccc(S(=O)(=O)Nc4ccc(C(F)(F)F)cc4)cc32)s1 [10720/E07]	18.8
COC1CC(C=C2C(=O)Nc3ccc(S(=O)(=O)Nc4ccc(C(F)(F)F)cc4)cc32)C(OC)O1 (centres unmarked) [10730/E10]	26.0
CN(C)c1ccc(C=C2C(=O)Nc3ccc(S(=O)(=O)Nc4ccc(C(F)(F)F)cc4)cc32)cc1 [10719/E08]	21.8
Cc1c(Br)ccc2c1C(=Cc1cccc(F)c1O)C(=O)N2 [10734/C08]	-34.2
O=C1Nc2c(Br)cc(Br)cc2C1=Cc1cc(C(F)(F)F)ccc1F [10728/A08]	-1.4
O=C1Nc2ccc(I)cc2C1=Cc1ccccc1Sc1ccc(Cl)cc1 [10727/B05]	10.5
CC(=O)Oc1ccc(C=C2C(=O)Nc3ccc(CCCl)cc32)cc1OC(C)=O [10723/G05]	-9.4
O=C1Nc2ccc(S(=O)(=O)Nc3ccc(C(F)(F)F)cc3)cc2C1=Cc1ccc(Br)s1 [10734/E11]	19.2
O=C1Nc2ccc(I)cc2C1=Cc1c(O)cc(O)cc1O [10722/B03]	13.6
O=C1Nc2ccc(I)cc2C1=CC(c1cccs1)C(F)(F)F (centres unmarked) [10732/B02]	2.9
Cc1c(Br)ccc2c1C(=Cc1cc(C(C)C)c(O)c(C(C)C)c1)C(=O)N2 [10724/C06]	-1.5
CC(C)(C)c1cc(C=C2C(=O)Nc3ccc(CCCl)cc32)cc(I)c1OCc1ccccc1 [10733/G02]	8.3

The measured values listed here are drawn from patent EP1247803A2.
